Hello, the source for this data is patent US20260083864A1, in case you need it.

- test details: Partition coefficient (log P butanol/buffer)
- Type: physicochemical
- condition description: 1-butanol / 50 mM Tris-HCl, pH 7.4, room temperature
Hi! Could you tag entries with Log P (partition coefficient butanol/buffer) below -1 as Condition met, and those at or above as Condition not met? Much appreciated.

Incoming: Does the reported Log P (partition coefficient butanol/buffer) of CCOCCOCCOc1ccc(CCC[C@@H](C(=O)O)N2CCN([C@H](CO)C(=O)[O-])CCN([C@H](CO)C(=O)[O-])CCN([C@H](CO)C(=O)[O-])CC2)cc1.[Gd+3] [Example 20] stay below -1?
Outgoing: Condition met

Incoming: Could you please tell me whether Log P (partition coefficient butanol/buffer) recorded for CCOc1ccc(CCCC(C(=O)O)N2CCN(CC(=O)[O-])CCN(CC(=O)[O-])CCN(CC(=O)[O-])CC2)cc1.[Gd+3] (stereo not drawn) [Example 28] is less than -1?
Outgoing: Condition not met

Incoming: Criterion: Log P (partition coefficient butanol/buffer) strictly below -1. Is it met by CCOCCOCCOCCOc1ccc(CC(C(=O)O)N2CCN(CC(=O)[O-])CCN(C(COC)C(=O)[O-])CCN(CC(=O)[O-])CC2)cc1.[Gd+3] (stereo not drawn) [Example 13] ?
Outgoing: Condition met

Incoming: Could you please tell me whether Log P (partition coefficient butanol/buffer) recorded for CCCC(C(=O)[O-])N1CCN(CC(=O)[O-])CCN(C(Cc2ccc(OCC)cc2)C(=O)O)CCN(CC(=O)[O-])CC1.[Gd+3] (stereo not drawn) [Example 30] is less than -1?
Outgoing: Condition not met

Incoming: Confirm or reject: Log P (partition coefficient butanol/buffer) of CCOCCOCCOCCOc1ccc(C[C@H](C(=O)O)N2CCN(CC(=O)[O-])CCN(CC(=O)[O-])CCN(CC(=O)[O-])CC2)cc1.[Gd+3] [Example 12] lies strictly below -1
Outgoing: Condition met

Incoming: # strict comparison: is reported Log P (partition coefficient butanol/buffer) < -1? input = CCCOc1ccc(CCC(C(=O)O)N2CCN(CC(=O)[O-])CCN(CC(=O)[O-])CCN(CC(=O)[O-])CC2)cc1.[Gd+3] (stereo not drawn) [Example 24]
Outgoing: Condition not met

Incoming: Does this compound meet the criterion Log P (partition coefficient butanol/buffer) < -1? CCOCCOCCOc1cc(CC(C(=O)O)N2CCN(CC(=O)[O-])CCN(CC(=O)[O-])CCN(CC(=O)[O-])CC2)cc(OCCOCCOCC)c1.[Gd+3] (stereo not drawn) [Example 39]
Outgoing: Condition met

Incoming: Is Log P (partition coefficient butanol/buffer) of CCOCCOCCOc1ccc(CC(C(=O)O)N2CCN(CC(=O)[O-])CCN(C(C)C(=O)[O-])CCN(CC(=O)[O-])CC2)cc1.[Gd+3] (single isomer, unassigned) [Example 6] strictly below -1?
Outgoing: Condition met

Incoming: Is the reported Log P (partition coefficient butanol/buffer) for CCCCOc1ccc(CC(C(=O)O)N2CCN(CC(=O)[O-])CCN(CC(=O)[O-])CCN(CC(=O)[O-])CC2)cc1.[Gd+3] (stereo not drawn) [Example 14] strictly below -1?
Outgoing: Condition not met

Incoming: Please indicate whether the reported Log P (partition coefficient butanol/buffer) of CCOCCOCCOc1ccc(CC(C(=O)O)N2CCN(CC(=O)[O-])CCN(CC(=O)[O-])CCN(CC(=O)[O-])CC2)nc1.[Gd+3] (stereo not drawn) [Example 23] is strictly below -1.
Outgoing: Condition met

Incoming: Item CCOCCOCCOCCOc1ccc(CC(C(=O)O)N2CCN(CC(=O)[O-])CCN(C(CO)C(=O)[O-])CCN(CC(=O)[O-])CC2)cc1.[Gd+3] (stereo not drawn) [Example 42] : Log P (partition coefficient butanol/buffer) beneath -1, strictly?
Outgoing: Condition met

----------
- test details: Complex stability (transmetallation) against Zn2+ in phosphate buffer
- condition description: 72 hours, 2.5 mM Zn^2+, 26 mM phosphate buffer, 37° C., pH 7.4
measured endpoint: Transmetallation stability (%)
Give just the numeric value; % need not be written.

Incoming: Which Transmetallation stability is listed for CCOCCOc1ccc(CC(C(=O)O)N2CCN(CC(=O)[O-])CCN(C(COC)C(=O)[O-])CCN(CC(=O)[O-])CC2)cc1.[Gd+3] (centres unmarked) [Example 38] ?
Outgoing: 97

Incoming: Can you look up the measured Transmetallation stability of COCC(C(=O)O)N1CCN(CC(=O)[O-])CCN(C(Cc2ccc(OCC(F)(F)C(F)F)cc2)C(=O)[O-])CCN(CC(=O)[O-])CC1.[Gd+3] (centres unmarked) [Example 45] for me?
Outgoing: 100

Incoming: Which measured Transmetallation stability value corresponds to CCOCCOCCOc1ccc(CC(C(=O)[O-])N2CCN(CC(=O)[O-])CCN(C(CC)C(=O)O)CCN(CC(=O)[O-])CC2)cc1.[Gd+3] (centres unmarked) [Example 43] ?
Outgoing: 102

Incoming: Fill in: Transmetallation stability of O=C([O-])CN1CCN(CC(=O)[O-])CCN(C(Cc2ccc(OCC(F)(F)C(F)F)cc2)C(=O)O)CCN(CC(=O)[O-])CC1.[Gd+3] (centres unmarked) [Example 46] is ___
Outgoing: 101

Incoming: Reported Transmetallation stability, molecule CCCOc1ccc(CC(C(=O)O)N2CCN(CC(=O)[O-])CCN(CC(=O)[O-])CCN(CC(=O)[O-])CC2)cc1.[Gd+3] (centres unmarked) [Example 48] : ____
Outgoing: 99

Incoming: Requested field: Transmetallation stability. Item: CCOCCOCCOc1ccc(CCC[C@@H](C(=O)O)N2CCN(CC(=O)[O-])CCN(CC(=O)[O-])CCN(CC(=O)[O-])CC2)cc1.[Gd+3] [Example 26]
Outgoing: 99

Incoming: Item under review: CCOCCOc1ccc(CC(C(=O)O)N2CCN(CC(=O)[O-])CCN(C(CC)C(=O)[O-])CCN(CC(=O)[O-])CC2)cc1.[Gd+3] (single isomer, unassigned) [Example 7] . Reported Transmetallation stability?
Outgoing: 101

Incoming: Query (molecule): CCOc1ccc(CCOCC(C(=O)O)N2CCN(CC(=O)[O-])CCN(CC(=O)[O-])CCN(CC(=O)[O-])CC2)cc1.[Gd+3] (centres unmarked) [Example 1] ; field requested: Transmetallation stability
Outgoing: 99

----------
Kindly state Log P (partition coefficient butanol/buffer) for each of the entries shown.
- test details: Partition coefficient (log P butanol/buffer)
- Format: physicochemical
- condition description: 1-butanol / 50 mM Tris-HCl, pH 7.4, room temperature
Output: the number by itself.

Incoming: Can you look up the measured Log P (partition coefficient butanol/buffer) of O=C([O-])CN1CCN(CC(=O)[O-])CCN(C(Cc2ccc(OCC(F)(F)C(F)F)cc2)C(=O)O)CCN(CC(=O)[O-])CC1.[Gd+3] (stereo not drawn) [Example 46] for me?
Outgoing: −0.57

Incoming: What does the data say about its Log P (partition coefficient butanol/buffer)? Entry: CCOCCOCCOc1ccc(CC(C(=O)[O-])N2CCN(CC(=O)[O-])CCN(C(CC)C(=O)O)CCN(CC(=O)[O-])CC2)cc1.[Gd+3] (stereo not drawn) [Example 43]
Outgoing: −1.19

Incoming: So what's the measured Log P (partition coefficient butanol/buffer) for this one? CCOCCOCCOc1ccc(CCC[C@@H](C(=O)O)N2CCN([C@@H](CO)C(=O)[O-])CCN([C@H](CO)C(=O)[O-])CCN([C@@H](CO)C(=O)[O-])CC2)cc1.[Gd+3] [Example 35]
Outgoing: −1.02

----------
- test details: Relaxivity measurements at 1.41 T in human plasma
- Type: physicochemical
- condition description: 37° C., normalized to Gd
Exercise: for every item that follows, state its recorded r1 human plasma.
Respond numerically; units are L/mmol/s and should not be typed.

Incoming: Name the recorded r1 human plasma for CCOCCOc1ccc(CC(C(=O)O)N2CCN(CC(=O)[O-])CCN(CC(=O)[O-])CCN(CC(=O)[O-])CC2)cc1.[Gd+3] (stereo not drawn) [Example 32] .
Outgoing: 6.6

Incoming: Return reported r1 human plasma; argument: CCOCCOCCOCCOc1ccc(C[C@H](C(=O)O)N2CCN(CC(=O)[O-])CCN(CC(=O)[O-])CCN(CC(=O)[O-])CC2)cc1.[Gd+3] [Example 12]
Outgoing: 6.6

Incoming: Suppose we examine the compound CCOCCOCCOc1ccc(CC(C(=O)O)N2CCN(C(CO)C(=O)[O-])CCN(C(CO)C(=O)[O-])CCN(C(CO)C(=O)[O-])CC2)cc1.[Gd+3] (stereo not drawn) [Example 22] ; what r1 human plasma value has been reported?
Outgoing: 7.7

Incoming: Returns the measured r1 human plasma for the input compound. Input: CCOc1ccc(CCCC(C(=O)O)N2CCN(CC(=O)[O-])CCN(CC(=O)[O-])CCN(CC(=O)[O-])CC2)cc1.[Gd+3] (stereo not drawn) [Example 28]
Outgoing: 10.6

Incoming: Which measured r1 human plasma value corresponds to CCCOc1ccc(CCC(C(=O)O)N2CCN(CC(=O)[O-])CCN(CC(=O)[O-])CCN(CC(=O)[O-])CC2)cc1.[Gd+3] (stereo not drawn) [Example 24] ?
Outgoing: 8.8

Incoming: Return reported r1 human plasma; argument: CCOCCOCCOc1ccc(CCC[C@@H](C(=O)O)N2CCN([C@H](CO)C(=O)[O-])CCN([C@H](CO)C(=O)[O-])CCN([C@H](CO)C(=O)[O-])CC2)cc1.[Gd+3] [Example 20]
Outgoing: 9.8
